- experiment-notes: self-splicing fitness, log relative to wild type (ln ratio); higher = more splicing; Tetrahymena group I intron in knt gene, E. coli kanamycin selection, DiMSum; sequences stand for … in CUCUCU…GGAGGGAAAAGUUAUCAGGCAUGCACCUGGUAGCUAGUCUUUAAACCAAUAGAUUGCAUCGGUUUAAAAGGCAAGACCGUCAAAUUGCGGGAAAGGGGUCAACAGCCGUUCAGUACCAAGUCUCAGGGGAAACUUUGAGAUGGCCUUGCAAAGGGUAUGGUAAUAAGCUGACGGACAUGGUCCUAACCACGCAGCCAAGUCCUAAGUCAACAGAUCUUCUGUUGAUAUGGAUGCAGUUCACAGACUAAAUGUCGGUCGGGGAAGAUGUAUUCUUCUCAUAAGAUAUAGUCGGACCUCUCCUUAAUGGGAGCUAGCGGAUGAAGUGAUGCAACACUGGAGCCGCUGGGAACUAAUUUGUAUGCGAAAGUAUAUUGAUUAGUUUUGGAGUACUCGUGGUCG;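 further: selection with 25 µg/mL kanamycin versus none on LB agar overnight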
- conditions-used: 37 °C
property-label: self-splicing fitness (ln)
Please reply with the number alone, leaving off any unit.

Supply reported self-splicing fitness (ln) belonging to this sequence: UCGGAGCAAUAUUACGUCAG
-1.11

Further cases:
Supply reported self-splicing fitness (ln) belonging to this sequence: GCCAAGCAAUAUUACGCCCC
-0.946

Supply reported self-splicing fitness (ln) belonging to this sequence: CGGGAGCAAUAUUACGAAGG
-1.74

Supply reported self-splicing fitness (ln) belonging to this sequence: GGGUAGCAAUAUUACGGUAA
-0.587

Supply reported self-splicing fitness (ln) belonging to this sequence: AGAUAGCAAUAUUACGAUGU
-0.112

Supply reported self-splicing fitness (ln) belonging to this sequence: GAGAAGCAAUAUUACGCCAC
-0.779

Supply reported self-splicing fitness (ln) belonging to this sequence: AGAGAGCAAUAUUACGUCGU
-1.78

Supply reported self-splicing fitness (ln) belonging to this sequence: GUCUAGCAAUAUUACGUGGU
-0.907

Supply reported self-splicing fitness (ln) belonging to this sequence: UACAAGCAAUAUUACGACUC
-1.2

Supply reported self-splicing fitness (ln) belonging to this sequence: CGCCAGCAAUAUUACGCCCU
-0.637

Supply reported self-splicing fitness (ln) belonging to this sequence: AUACAGCAAUAUUACGUUUU
-2.09

Supply reported self-splicing fitness (ln) belonging to this sequence: UAGCAGCAAUAUUACGUCCA
-0.187

Supply reported self-splicing fitness (ln) belonging to this sequence: AUGAAGCAAUAUUACGGAAG
-0.408

Supply reported self-splicing fitness (ln) belonging to this sequence: UUUCAGCAAUAUUACGAUAA
0.707

---

- experiment-notes: self-splicing fitness, log relative to wild type (ln ratio); higher = more splicing; Tetrahymena group I intron in knt gene, E. coli kanamycin selection, DiMSum; sequences stand for … in CUCUCU…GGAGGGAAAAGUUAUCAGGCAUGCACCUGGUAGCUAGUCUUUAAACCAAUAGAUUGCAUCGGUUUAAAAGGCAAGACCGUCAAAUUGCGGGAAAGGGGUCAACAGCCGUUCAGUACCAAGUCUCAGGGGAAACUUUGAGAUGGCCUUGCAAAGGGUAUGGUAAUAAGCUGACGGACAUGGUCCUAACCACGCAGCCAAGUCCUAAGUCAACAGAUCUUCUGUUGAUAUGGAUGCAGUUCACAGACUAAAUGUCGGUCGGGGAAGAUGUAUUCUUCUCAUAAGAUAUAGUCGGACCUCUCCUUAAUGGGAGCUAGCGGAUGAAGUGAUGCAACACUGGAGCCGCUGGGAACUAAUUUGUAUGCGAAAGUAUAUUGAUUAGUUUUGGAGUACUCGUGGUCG
- conditions-used: 37 °C
Recorded self-splicing fitness (ln), one value per entry.
Please reply with the number alone, leaving off any unit.

In the examples that follow, each entry is paired with its recorded self-splicing fitness (ln).
Supply reported self-splicing fitness (ln) belonging to this sequence: UUGGAGCAAUAUUACGUUAU
-0.885

Supply reported self-splicing fitness (ln) belonging to this sequence: ACCAAGCAAUAUUACGAGCA
-0.958

Supply reported self-splicing fitness (ln) belonging to this sequence: GACUAGCAAUAUUACGCAAG
-1.6

Further cases:
Supply reported self-splicing fitness (ln) belonging to this sequence: UGAUAGCAAUAUUACGUUGU
-2.98

Supply reported self-splicing fitness (ln) belonging to this sequence: UUCUAGCAAUAUUACGUCCU
-2.91

Supply reported self-splicing fitness (ln) belonging to this sequence: CUUUAGCAAUAUUACGGGAA
-1.58

Supply reported self-splicing fitness (ln) belonging to this sequence: UAACAGCAAUAUUACGUCUA
0.144

---

- experiment-notes: self-splicing fitness, log relative to wild type (ln ratio); higher = more splicing; Tetrahymena group I intron in knt gene, E. coli kanamycin selection, DiMSum; sequences stand for … in CUCUCU…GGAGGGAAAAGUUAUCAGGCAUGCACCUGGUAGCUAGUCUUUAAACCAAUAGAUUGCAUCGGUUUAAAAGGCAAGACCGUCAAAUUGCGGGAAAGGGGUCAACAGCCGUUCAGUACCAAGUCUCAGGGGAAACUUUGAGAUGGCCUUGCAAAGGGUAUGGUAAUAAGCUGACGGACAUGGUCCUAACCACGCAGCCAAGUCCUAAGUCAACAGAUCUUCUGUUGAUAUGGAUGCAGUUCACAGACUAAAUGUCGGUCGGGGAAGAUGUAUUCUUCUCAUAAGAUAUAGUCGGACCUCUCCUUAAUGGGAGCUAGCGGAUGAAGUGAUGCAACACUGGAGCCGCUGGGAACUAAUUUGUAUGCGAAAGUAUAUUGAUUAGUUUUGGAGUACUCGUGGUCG
- conditions-used: 37 °C
Recorded self-splicing fitness (ln), one value per entry.

Supply reported self-splicing fitness (ln) belonging to this sequence: UUGUAGCAAUAUUACGGUAA
-0.727

Supply reported self-splicing fitness (ln) belonging to this sequence: GGAUAGCAAUAUUACGUCCU
-1.84

Supply reported self-splicing fitness (ln) belonging to this sequence: ACGUAGCAAUAUUACGAUUU
-0.149

Supply reported self-splicing fitness (ln) belonging to this sequence: CACGAGCAAUAUUACGCUCU
-2.93

Supply reported self-splicing fitness (ln) belonging to this sequence: AUGUAGCAAUAUUACGAGAG
-2.71

Supply reported self-splicing fitness (ln) belonging to this sequence: CUGCAGCAAUAUUACGCGUU
-2.1

Supply reported self-splicing fitness (ln) belonging to this sequence: UUUAAGCAAUAUUACGACAA
-0.304

Supply reported self-splicing fitness (ln) belonging to this sequence: UUUGAGCAAUAUUACGGCAA
-0.742

---

- experiment-notes: self-splicing fitness, log relative to wild type (ln ratio); higher = more splicing; Tetrahymena group I intron in knt gene, E. coli kanamycin selection, DiMSum; sequences stand for … in CUCUCU…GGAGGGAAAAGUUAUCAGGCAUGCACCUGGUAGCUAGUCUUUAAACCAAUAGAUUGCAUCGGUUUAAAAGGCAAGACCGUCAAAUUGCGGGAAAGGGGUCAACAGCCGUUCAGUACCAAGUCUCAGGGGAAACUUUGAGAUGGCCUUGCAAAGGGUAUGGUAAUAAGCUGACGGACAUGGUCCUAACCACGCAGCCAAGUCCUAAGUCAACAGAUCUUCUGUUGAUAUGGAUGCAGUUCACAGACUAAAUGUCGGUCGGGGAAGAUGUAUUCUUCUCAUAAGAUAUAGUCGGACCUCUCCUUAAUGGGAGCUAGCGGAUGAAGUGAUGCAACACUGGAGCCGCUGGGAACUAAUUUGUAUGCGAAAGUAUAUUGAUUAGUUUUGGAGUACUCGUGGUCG
- conditions-used: 30 °C
Binning rule for recorded self-splicing fitness (ln): low: < -3; mid: ≥ -3 and < -1; high: ≥ -1

Example entries and their recorded answers appear below.
Quick check: band for UUUCAGCAAUAUUACGCACA
high

Quick check: band for UUGGAGCAAUAUUACGGUAG
low

Quick check: band for GACGAGCAAUAUUACGAGGC
low

Quick check: band for GGAAAGCAAUAUUACGUACG
high

Quick check: band for UGUUAGCAAUAUUACGCAUG
mid

Further cases:
Quick check: band for UUACAGCAAUAUUACGCAGU
low

Quick check: band for AGUAAGCAAUAUUACGAAUG
mid

Quick check: band for CGGGAGCAAUAUUACGCUCA
low

Quick check: band for UACCAGCAAUAUUACGUACG
high

Quick check: band for UCGGAGCAAUAUUACGUUGA
mid

Quick check: band for UUUAAGCAAUAUUACGGGCG
high

Quick check: band for GGCCAGCAAUAUUACGAGAC
low

---

- experiment-notes: self-splicing fitness, log relative to wild type (ln ratio); higher = more splicing; Tetrahymena group I intron in knt gene, E. coli kanamycin selection, DiMSum; sequences stand for … in CUCUCU…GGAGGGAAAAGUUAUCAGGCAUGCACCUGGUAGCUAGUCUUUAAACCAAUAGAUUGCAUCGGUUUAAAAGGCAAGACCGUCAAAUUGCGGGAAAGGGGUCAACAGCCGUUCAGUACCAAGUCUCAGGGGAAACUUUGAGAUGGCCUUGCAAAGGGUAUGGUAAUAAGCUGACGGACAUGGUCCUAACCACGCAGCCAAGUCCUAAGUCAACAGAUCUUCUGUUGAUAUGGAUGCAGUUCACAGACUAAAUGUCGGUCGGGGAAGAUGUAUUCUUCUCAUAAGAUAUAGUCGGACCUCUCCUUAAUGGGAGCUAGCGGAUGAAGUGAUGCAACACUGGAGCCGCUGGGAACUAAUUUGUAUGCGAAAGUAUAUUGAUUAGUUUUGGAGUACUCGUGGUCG
- conditions-used: 37 °C
property-label: self-splicing fitness (ln)
Please reply with the number alone, leaving off any unit.

In the examples that follow, each entry is paired with its recorded self-splicing fitness (ln).
Supply reported self-splicing fitness (ln) belonging to this sequence: CUACAGCAAUAUUACGUAUA
-1.13

Supply reported self-splicing fitness (ln) belonging to this sequence: UCGUAGCAAUAUUACGGGGA
-1.23

Supply reported self-splicing fitness (ln) belonging to this sequence: UAAAAGCAAUAUUACGAAUC
-2.13

Supply reported self-splicing fitness (ln) belonging to this sequence: GGCCAGCAAUAUUACGAUAC
-0.501

Further cases:
Supply reported self-splicing fitness (ln) belonging to this sequence: UACUAGCAAUAUUACGGUCA
0.31

Supply reported self-splicing fitness (ln) belonging to this sequence: UCGCAGCAAUAUUACGAAAC
-3.1

Supply reported self-splicing fitness (ln) belonging to this sequence: CCCGAGCAAUAUUACGGGCG
-2.47

Supply reported self-splicing fitness (ln) belonging to this sequence: AGGCAGCAAUAUUACGUUUG
-1.66
